Assay: Acute toxicity test (LD50) in mice
Conditions: mouse, in vivo, ip, intraperitoneal, male
Quantity name: LD50 (mg/kg)

CC(C)(C)NCC(O)COc1c[nH]c(=O)c2ccccc12 (centres unmarked) = 382
Cl.Cn1cc(OCC(O)CNC(C)(C)C)c2ccccc2c1=O (centres unmarked) = 578

Hello, the source for this data is patent US5061714A, in case you need it.
